# Measurement Notes: Kinetic solubility assay
# Assay type: physicochemical
# Recorded Conditions: example compound versus its matched pair phenyl compound
Label rule met when Fold improvement in kinetic solubility >= 30; otherwise rule not met.

Example entries begin here.
[[record]]
compound = "CC1(CO)Cc2cc(NC(=O)c3cnn4cccnc34)c(N3CCOCC3)nc2O1 (stereo in doubt) [Example 10]"
group_label = "rule not met"

[[record]]
compound = "C[C@]1(O)COc2nc(N3CCN(CC(F)F)CC3)c(NC(=O)c3cnn4cccnc34)cc2C1 (stereo in doubt) [Example 18]"
group_label = "rule not met"

[[record]]
compound = "CC1(C)Cc2cc(NC(=O)c3cnn4cccnc34)c(N3CCOCC3)nc2O1 [Example 1]"
group_label = "rule met"


Now for another entry.
Challenge: Decide: is the reported value of Fold improvement in kinetic solubility for CC1(CO)Cc2cc(NC(=O)c3cnn4cccnc34)c(N3CCOCC3)nc2O1 (stereo in doubt) [Example 11] equal to or greater than 30?
Response given: rule not met

----------
# Measurement Notes: Kinetic solubility assay
# Type: physicochemical
# Recorded Conditions: example compound versus its matched pair phenyl compound
# Fold improvement in kinetic solubility per entry
Form: value (number only, do not type unit).

Challenge: Any idea what its Fold improvement in kinetic solubility is? The molecule is CC1(C)Cc2cc(NC(=O)c3cnn4cccnc34)c(N3CCN(CC(N)=O)CC3)nc2O1 [Example 6]
Response given: 14.6

Challenge: Could you do the same for C[C@@]1(O)COc2nc(N3CCN(CC(F)F)CC3)c(NC(=O)c3cnn4cccnc34)cc2C1 (stereo in doubt) [Example 19] , please?
Response given: 31.6

Challenge: Okay, and CC1(C)Cc2cc(NC(=O)c3cnn4cccnc34)c(N3CCN(CC(F)F)CC3)nc2O1 [Example 9] ?
Response given: 137.0

Challenge: Would you kindly repeat that for Cc1cnc2c(C(=O)Nc3cc4c(nc3N3CCC(CO)CC3)OC(C)(C)C4)cnn2c1 [Example 3] ?
Response given: 7.5

----------
Below, each of the molecules is paired with its reported solubility kinetic at 24 h value.
# Measurement Notes: Kinetic solubility assay
# Format: physicochemical
# Recorded Conditions: PBS buffer with 2% DMSO, aqueous buffer, kinetic from dmso stock; PBS buffer pH 7.4, 2% DMSO, 24 hours shaking at room temperature, UHPLC-CLND
Report the figure in µM without appending any unit label.

[[record]]
molecule = "C[C@@]1(O)COc2nc(N3CCN(CC(F)F)CC3)c(NC(=O)c3cnn4cccnc34)cc2C1 (stereo in doubt) [Example 19]"
unit_abbrev = "µM"
value_measured = 177


Challenge: What value of solubility kinetic at 24 h has been recorded for this entry: Cc1cnc2c(C(=O)Nc3cc4c(nc3N3CCC(CO)CC3)OC(C)(C)C4)cnn2c1 [Example 3]
Response given: 7.5

Challenge: And what about the molecule CC1(C)Cc2cc(NC(=O)c3cnn4cccnc34)c(N3CCN(CC(N)=O)CC3)nc2O1 [Example 6] ?
Response given: 143

Challenge: Let us now turn to CN1Cc2cc(NC(=O)c3cnn4cccnc34)c(N3CCOCC3)nc2C1=O [Example 12]
Response given: 39

----------
# Measurement Notes: Kinetic solubility assay
# Assay type: physicochemical
# Recorded Conditions: PBS buffer with 2% DMSO, aqueous buffer, kinetic from dmso stock; PBS buffer pH 7.4, 2% DMSO, 24 hours shaking at room temperature, UHPLC-CLND
Measurement Label: solubility kinetic at 24 h (µM)
Respond numerically; units are µM and should not be typed.

Consider the reported solubility kinetic at 24 h for these compounds:
[[record]]
compound = "C[C@]1(CO)Cc2cc(NC(=O)c3cnn4cccnc34)c(N3CCN(CC(F)F)CC3)nc2O1 (stereo in doubt) [Example 21]"
measurement_label = "solubility kinetic at 24 h"
value_measured = 124

[[record]]
compound = "CC1(C)Cc2cc(NC(=O)c3cnn4cccnc34)c(N3CCOCC3)nc2O1 [Example 1]"
measurement_label = "solubility kinetic at 24 h"
value_measured = 166

[[record]]
compound = "CC1(C)Cc2cc(NC(=O)c3cnn4cccnc34)c(N3CCC(F)(CO)CC3)nc2O1 [Example 5]"
measurement_label = "solubility kinetic at 24 h"
value_measured = 112

[[record]]
compound = "C[C@@]1(CO)Cc2cc(NC(=O)c3cnn4cccnc34)c(N3CCOCC3)nc2O1 (single isomer, unassigned) [Example 11]"
measurement_label = "solubility kinetic at 24 h"
value_measured = 137

[[record]]
compound = "CC1(C)Cc2cc(NC(=O)c3cnn4cccnc34)c(N3CCN(CC(F)F)CC3)nc2O1 [Example 9]"
measurement_label = "solubility kinetic at 24 h"
value_measured = 137

[[record]]
compound = "CC1(CO)Cc2cc(NC(=O)c3cnn4cccnc34)c(N3CCOCC3)nc2O1 (stereo in doubt) [Example 10]"
measurement_label = "solubility kinetic at 24 h"
value_measured = 159


Moving on to the next compound.
Challenge: Item under review: C[C@]1(O)COc2nc(N3CCN(CC(F)F)CC3)c(NC(=O)c3cnn4cccnc34)cc2C1 (stereo in doubt) [Example 18] . Reported solubility kinetic at 24 h?
Response given: 167

----------
# Study Target: human IRAK4 (Homo sapiens (Human), UniProt Q9NWZ3)
# Sequence (Q9NWZ3 whole entry): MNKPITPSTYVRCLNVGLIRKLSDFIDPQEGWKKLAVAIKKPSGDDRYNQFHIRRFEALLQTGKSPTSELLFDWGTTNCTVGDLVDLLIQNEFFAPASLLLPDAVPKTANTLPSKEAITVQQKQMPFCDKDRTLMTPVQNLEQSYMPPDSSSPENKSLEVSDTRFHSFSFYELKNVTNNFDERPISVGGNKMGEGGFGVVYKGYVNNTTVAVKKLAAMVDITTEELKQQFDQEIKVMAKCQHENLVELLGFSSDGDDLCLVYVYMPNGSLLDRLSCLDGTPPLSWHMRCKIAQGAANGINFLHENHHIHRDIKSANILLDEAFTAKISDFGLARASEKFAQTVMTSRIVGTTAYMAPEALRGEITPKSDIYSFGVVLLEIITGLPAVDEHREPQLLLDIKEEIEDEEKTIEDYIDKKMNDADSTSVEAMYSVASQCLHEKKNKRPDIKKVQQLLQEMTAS
# Measurement Notes: IRAK4 enzymatic assay (Transcreener fluorescence polarization, ADP detection)
# Assay type: biochemical
# Recorded Conditions: recombinant full-length IRAK4; 125 uM ATP; 90 min
Below, each entry is listed with its recorded Ki.
Form entry: value (nM) — number only.

Recorded results for 5 molecules are shown here.
[[record]]
molecule = "C[C@@]1(CO)Cc2cc(NC(=O)c3cnn4cccnc34)c(N3CCOCC3)nc2O1 (single isomer, unassigned)"
measurement_label = "Ki"
value_measured = 45

[[record]]
molecule = "C[C@]1(O)COc2nc(N3CCN(CC(F)F)CC3)c(NC(=O)c3cnn4cccnc34)cc2C1 (stereo in doubt)"
measurement_label = "Ki"
value_measured = 210

[[record]]
molecule = "Cc1cnc2c(C(=O)Nc3cc4c(nc3N3CCC(CO)CC3)OC(C)(C)C4)cnn2c1"
measurement_label = "Ki"
value_measured = 4.1

[[record]]
molecule = "CC1(C)Cc2cc(NC(=O)c3cnn4cccnc34)c(N3CCOC[C@@H]3CO)nc2O1 (single isomer, unassigned)"
measurement_label = "Ki"
value_measured = 820

[[record]]
molecule = "Cc1cnc2c(C(=O)Nc3cc4c(nc3N3CCN(CC(N)=O)CC3)O[C@@](C)(CO)C4)cnn2c1 (single isomer, unassigned)"
measurement_label = "Ki"
value_measured = 5.5


Now for another entry.
Challenge: Entry CC1(C)Cc2cc(NC(=O)c3cnn4cccnc34)c(N3CCC(F)(CO)CC3)nc2O1 : reported Ki = ?
Response given: 5.6

----------
# Measurement Notes: Plasma protein binding using rapid equilibrium dialysis (RED)
# Type: in vitro ADME
# Recorded Conditions: pH 7.4, human plasma, 37° C., read-out: Human PPB (converted)
Measurement Label: fraction unbound at 4 h, 5 µM
Answer with a number only.

For orientation, consider the following solved cases.
[[record]]
molecule = "CC1(C)Cc2cc(NC(=O)c3cnn4cccnc34)c(N3CCN(CC(N)=O)CC3)nc2O1"
value_measured = 0.226

[[record]]
molecule = "CC1(C)Cc2cc(NC(=O)c3cnn4cccnc34)c(N3CCOCC3)nc2O1"
value_measured = 0.143

[[record]]
molecule = "CC1(C)Cc2cc(NC(=O)c3cnn4cccnc34)c(N3CCC(CO)CC3)nc2O1"
value_measured = 0.074

[[record]]
molecule = "CC1(C)Cc2cc(NC(=O)c3cnn4cccnc34)c(N3CCN(CC(F)F)CC3)nc2O1"
value_measured = 0.123


Shift focus to the following entry.
Challenge: Would you kindly share the measured fraction unbound at 4 h, 5 µM for C[C@]1(CO)Cc2cc(NC(=O)c3cnn4cccnc34)c(N3CCN(CC(F)F)CC3)nc2O1 (stereo in doubt) ?
Response given: 0.363

----------
# Measurement Notes: Kinetic solubility assay
# Type: physicochemical
# Recorded Conditions: example compound versus its matched pair phenyl compound
We begin with a simple list: items and their reported Fold improvement in kinetic solubility.
Number only, please.

Example entries begin here.
[[record]]
compound = "CN1Cc2cc(NC(=O)c3cnn4cccnc34)c(N3CCOCC3)nc2C1=O"
value_measured = 5.7

[[record]]
compound = "CC1(C)Cc2cc(NC(=O)c3cnn4cccnc34)c(N3CCC(F)(CO)CC3)nc2O1"
value_measured = 43.1


Challenge: # query: Fold improvement in kinetic solubility of entry C[C@]1(CO)Cc2cc(NC(=O)c3cnn4cccnc34)c(N3CCN(CC(F)F)CC3)nc2O1 (stereo in doubt)
Response given: 27.0

----------
# Study Target: UniProt Q9NWZ3
# Measurement Notes: IRAK4 enzymatic assay (Transcreener fluorescence polarization, ADP detection)
# Recorded Conditions: recombinant full-length IRAK4; 125 uM ATP; 90 min
pKi: −log10 of the molar value.
Quick rule for you: pKi at 8 or higher means criterion met, lower means criterion not met.

Solved cases below.
[[record]]
compound = "CN1Cc2cc(NC(=O)c3cnn4cccnc34)c(N3CCOCC3)nc2C1=O [Example 12]"
group_label = "criterion not met"

[[record]]
compound = "CC1(C)Cc2cc(NC(=O)c3cnn4cccnc34)c(N3CCOC[C@H]3CO)nc2O1 (single isomer, unassigned) [Example 7]"
group_label = "criterion not met"

[[record]]
compound = "CC(C)(O)[C@@]1(C)Cc2cc(NC(=O)c3cnn4cccnc34)c(N3CCOCC3)nc2O1 (single isomer, unassigned) [Example 14]"
group_label = "criterion not met"

[[record]]
compound = "CC1(CO)Cc2cc(NC(=O)c3cnn4cccnc34)c(N3CCOCC3)nc2O1 (stereo in doubt) [Example 10]"
group_label = "criterion not met"

[[record]]
compound = "CC(C)(O)[C@]1(C)Cc2cc(NC(=O)c3cnn4cccnc34)c(N3CCOCC3)nc2O1 (single isomer, unassigned) [Example 13]"
group_label = "criterion not met"

[[record]]
compound = "CC1(C)Cc2cc(NC(=O)c3cnn4cccnc34)c(N3CCN(CC(N)=O)CC3)nc2O1 [Example 6]"
group_label = "criterion met"

[[record]]
compound = "C[C@@]1(O)COc2nc(N3CCN(CC(F)F)CC3)c(NC(=O)c3cnn4cccnc34)cc2C1 (stereo in doubt) [Example 19]"
group_label = "criterion not met"

[[record]]
compound = "CC1(C)Cc2cc(NC(=O)c3cnn4cccnc34)c(N3CCN(CCO)CC3)nc2O1 [Example 4]"
group_label = "criterion not met"


Challenge: // inclusive: pKi at least 8? input: CC1(C)Cc2cc(NC(=O)c3cnn4cccnc34)c(N3CCC(CO)CC3)nc2O1 [Example 2]
Response given: criterion met

Challenge: Repeat for the following compound: CC1(C)Cc2cc(NC(=O)c3cnn4cccnc34)c(N3CCOCC3)nc2O1 [Example 1]
Response given: criterion not met
